Hello, the source for this data is patent US11214803B2, in case you need it.

# YAP1 (% UTC) per entry
system: Yap1 mRNA; experiment: Antisense inhibition of human Yap1 in A-431 cells by cEt gapmers, single dose (Example 2, RTS4814); format: cell-based; settings: Table 24; Yap1 mRNA as percent of untreated control; 3-10-3 cEt gapmers targeting SEQ ID NO.: 1, and 2
Strand notation (5' to 3'): a small letter for the sugar, then the base; units joined by * are phosphorothioate-linked, units joined directly phosphodiester-linked; [ ] holds rarer units or linkages, { } end groups; capitals alone tell only the bases. k = constrained ethyl (cEt); [5mC] = 5-methylcytosine; d = 2'-deoxy (DNA)
measure: YAP1 (% UTC)

substance: 1075530 (kG*kA*kA*dA*dT*d[5mC]*dG*dA*dA*dG*dG*dG*d[5mC]*kA*kA*kA; antisense) [Compound 1075530]
recorded measurement: 30
//
substance: 1074378 (antisense kG*kA*kA*dA*d[5mC]*dG*dG*dT*dT*d[5mC]*dT*dG*d[5mC]*kT*kG*kT) [Compound 1074378]
recorded measurement: 31
//
substance: 1075914 (kA*kT*kT*dT*dA*dG*dG*dA*dT*dG*d[5mC]*d[5mC]*dT*kT*kT*kA; antisense) [Compound 1075914]
recorded measurement: 14
//
substance: 1076330 (kG*kA*kA*dT*dT*dA*dT*dA*d[5mC]*dT*dG*dG*d[5mC]*kT*kA*k[5mC]; antisense) [Compound 1076330]
recorded measurement: 3
//
substance: 1075082 (antisense k[5mC]*kT*kT*dT*dA*dG*dA*dT*dA*d[5mC]*dA*dA*dG*kA*kG*kG) [Compound 1075082]
recorded measurement: 80
//
substance: 1075178 (antisense k[5mC]*kT*kG*dG*dA*dA*dG*dA*dA*dA*dT*dT*dA*k[5mC]*k[5mC]*k[5mC]) [Compound 1075178]
recorded measurement: 47
//
substance: 1074634 (antisense kG*k[5mC]*kT*dG*dA*dG*dG*d[5mC]*dT*dT*dT*dT*d[5mC]*kA*kT*kA) [Compound 1074634]
recorded measurement: 55
//
substance: 1075402 (antisense kG*kA*kG*d[5mC]*dA*dA*d[5mC]*dA*d[5mC]*dA*dA*dG*d[5mC]*kA*kT*kA) [Compound 1075402]
recorded measurement: 45
//
substance: 958499 (kA*kT*kT*dA*dG*dA*dG*dT*dA*dT*dG*dT*dG*kG*k[5mC]*kA) [Compound 958499]
recorded measurement: 2
//
substance: 1075754 (k[5mC]*kT*kT*dA*dA*dA*dT*dG*dG*d[5mC]*dA*d[5mC]*dA*kG*kT*kT; antisense) [Compound 1075754]
recorded measurement: 20
//
substance: 1074250 (antisense k[5mC]*kT*kG*dA*dT*d[5mC]*dG*dA*dT*dG*dT*dG*dA*kT*kT*kT) [Compound 1074250]
recorded measurement: 6
//
substance: 1075626 (k[5mC]*kA*kT*dT*dA*dG*d[5mC]*d[5mC]*dA*dA*dA*dG*d[5mC]*kT*k[5mC]*kA; antisense) [Compound 1075626]
recorded measurement: 34
//
substance: 1075946 (kG*k[5mC]*kT*dG*dA*dA*dT*dA*dA*dG*dT*dA*dA*k[5mC]*kT*kT; antisense) [Compound 1075946]
recorded measurement: 20

---

// Yap1 mRNA, % UTC lookup, one value per entry
system: Yap1 mRNA; experiment: Dose-dependent inhibition of human Yap1 in A-431 cells (Example 8, 10,000 cells per well, RTS4814); assay type: cell-based; conditions: 500.0 nM; A-431 cells, 10,000 cells per well, free uptake, approximately 48 hours, RTS4814
Strand notation (5' to 3'): a small letter for the sugar, then the base; units joined by * are phosphorothioate-linked, units joined directly phosphodiester-linked; [ ] holds rarer units or linkages, { } end groups; capitals alone tell only the bases. k = constrained ethyl (cEt); [5mC] = 5-methylcytosine; d = 2'-deoxy (DNA)
measure: Yap1 mRNA, % UTC (% UTC)

substance: 1074630 (antisense kA*kG*kA*dG*dA*dT*dT*dT*dT*dA*dT*dG*d[5mC]*k[5mC]*kT*kG) [compound 1074630]
tested system: Yap1 mRNA
recorded measurement: 10

substance: 1074245 (antisense kA*kG*kA*dA*dG*dT*dA*dT*d[5mC]*dT*d[5mC]*dT*dG*kA*k[5mC]*k[5mC]) [compound 1074245]
tested system: Yap1 mRNA
recorded measurement: 8

substance: 1075784 (kA*kT*kT*dT*dT*dA*dT*dA*dG*dG*dG*d[5mC]*d[5mC]*kA*kT*kT; antisense) [compound 1075784]
tested system: Yap1 mRNA
recorded measurement: 5

substance: 1076464 (k[5mC]*kA*kT*dA*dT*dA*d[5mC]*dA*dA*dT*dT*d[5mC]*dT*kG*k[5mC]*k[5mC]; antisense) [compound 1076464]
tested system: Yap1 mRNA
recorded measurement: 3

substance: 1076459 (k[5mC]*kT*kT*d[5mC]*dA*dA*d[5mC]*dA*dA*dG*dA*d[5mC]*dA*kG*kG*kT; antisense) [compound 1076459]
tested system: Yap1 mRNA
recorded measurement: 13

substance: 1075778 (k[5mC]*kA*kT*dT*dT*dA*dT*dA*d[5mC]*d[5mC]*dA*dG*dG*k[5mC]*kA*k[5mC]; antisense) [compound 1075778]
tested system: Yap1 mRNA
recorded measurement: 10

---

Yap1 mRNA, % UTC values, listed per item
tested on: Yap1 mRNA; test: Dose-dependent inhibition of human Yap1 in A-431 cells (Example 8, 10,000 cells per well, RTS4814); format: cell-based; details: 125.0 nM; A-431 cells, 10,000 cells per well, free uptake, approximately 48 hours, RTS4814
Strand notation (5' to 3'): a small letter for the sugar, then the base; units joined by * are phosphorothioate-linked, units joined directly phosphodiester-linked; [ ] holds rarer units or linkages, { } end groups; capitals alone tell only the bases. k = constrained ethyl (cEt); [5mC] = 5-methylcytosine; d = 2'-deoxy (DNA)
measure: Yap1 mRNA, % UTC (% UTC)

substance: 1076114 (kA*kT*kT*dA*dG*dT*dA*dA*dG*d[5mC]*dT*dG*dA*kG*kG*kA; antisense) [compound 1076114]
measure: Yap1 mRNA, % UTC
recorded measurement: 11

substance: 1076462 (kT*k[5mC]*kA*dG*dA*dA*dG*dG*dA*dT*dA*dT*dG*k[5mC]*kA*kG; antisense) [compound 1076462]
measure: Yap1 mRNA, % UTC
recorded measurement: 22

substance: 1075233 (kG*kT*kA*dA*dT*dT*dT*dA*dT*d[5mC]*dA*dG*d[5mC]*k[5mC]*kA*kT; antisense) [compound 1075233]
measure: Yap1 mRNA, % UTC
recorded measurement: 12

substance: 1075457 (antisense kA*kG*kT*dA*dA*dT*dA*dT*dG*dT*dA*d[5mC]*dA*kT*kG*kG) [compound 1075457]
measure: Yap1 mRNA, % UTC
recorded measurement: 21

substance: 1076174 (kG*kA*kT*dA*dT*dA*dT*dG*dG*dT*dA*dG*d[5mC]*kA*kT*kA; antisense) [compound 1076174]
measure: Yap1 mRNA, % UTC
recorded measurement: 21

substance: 1076330 (antisense kG*kA*kA*dT*dT*dA*dT*dA*d[5mC]*dT*dG*dG*d[5mC]*kT*kA*k[5mC]) [compound 1076330]
measure: Yap1 mRNA, % UTC
recorded measurement: 31

---

Spleen weight values for the substances below.
test: Tolerability in Balb/c mice, body and organ weights (Example 12); format: in vivo; settings: male Balb/c mice, 50 mg/kg s.c. twice a week for four weeks (8 treatments), end of study (day 26)
Strand notation (5' to 3'): a small letter for the sugar, then the base; units joined by * are phosphorothioate-linked, units joined directly phosphodiester-linked; [ ] holds rarer units or linkages, { } end groups; capitals alone tell only the bases. k = constrained ethyl (cEt); [5mC] = 5-methylcytosine; d = 2'-deoxy (DNA)
measure: Spleen weight (g)

substance: 958498 (kG*kA*kG*dT*dA*dT*dG*dT*dG*dG*d[5mC]*dA*dA*kT*kA*kA; antisense) [compound 958498]
unit text: g
recorded measurement: 0.19
--
substance: 958509 (kA*kT*kG*dT*dT*dA*dT*dG*dT*dT*dT*dG*dG*kG*kT*kG; antisense) [compound 958509]
unit text: g
recorded measurement: 0.13
--
substance: 958603 (kT*kG*kG*dT*dA*dT*dG*dA*dA*dT*dT*d[5mC]*dT*kG*kA*kA; antisense) [compound 958603]
unit text: g
recorded measurement: 0.20
--
substance: 958729 (kG*kT*k[5mC]*dA*dG*dT*dT*dA*dT*d[5mC]*d[5mC]*dT*dA*kT*k[5mC]*kT; antisense) [compound 958729]
unit text: g
recorded measurement: 0.05
--
substance: 958375 (antisense kA*kA*kA*dG*d[5mC]*d[5mC]*dT*dT*dA*dG*dA*dG*dT*k[5mC]*kA*kA) [compound 958375]
unit text: g
recorded measurement: 0.12
--
substance: 958725 (kG*kT*k[5mC]*dA*dG*dT*dT*dA*dT*d[5mC]*d[5mC]*dT*dA*kT*k[5mC]*k[5mC]; antisense) [compound 958725]
unit text: g
recorded measurement: 0.04
--
substance: 958721 (kG*kT*kA*dG*dT*dA*dT*dA*dA*dT*dG*dA*dG*kT*kT*kA; antisense) [compound 958721]
unit text: g
recorded measurement: 0.12
--
substance: 958553 (k[5mC]*k[5mC]*kA*dT*dT*dA*dT*dT*dA*d[5mC]*dT*d[5mC]*d[5mC]*kT*kG*kT; antisense) [compound 958553]
unit text: g
recorded measurement: 0.11
--
substance: 958590 (kA*kG*kG*dT*dA*dT*dA*dA*d[5mC]*dT*dG*dG*dG*k[5mC]*kA*kA) [compound 958590]
unit text: g
recorded measurement: 0.13
--
substance: 958736 (kG*kT*kG*dA*dT*dA*dT*dG*dG*dA*dT*dT*d[5mC]*kT*kG*kT; antisense) [compound 958736]
unit text: g
recorded measurement: 0.18
--
substance: 958454 (antisense kG*kG*kA*dA*dT*dG*dA*dG*d[5mC]*dT*d[5mC]*dG*dA*kA*k[5mC]*kA) [compound 958454]
unit text: g
recorded measurement: 0.03
--
substance: 958554 (kA*kA*k[5mC]*d[5mC]*dA*dT*dT*dA*dT*dT*dA*d[5mC]*dT*k[5mC]*k[5mC]*kT; antisense) [compound 958554]
unit text: g
recorded measurement: 0.15
--
substance: 958499 (ATTAGAGTATGTGGCA; 3-10-3 cEt gapmer, further chemistry not given here) [compound 958499]
unit text: g
recorded measurement: 0.14
--
substance: 958540 (kA*kT*kT*d[5mC]*dT*dA*dT*d[5mC]*d[5mC]*dA*dG*dG*dG*kT*k[5mC]*kA; antisense) [compound 958540]
unit text: g
recorded measurement: 0.09
